TEST_DETAILS: Kinetic solubility of the compound at pH 7.4 by CLND method
Type: physicochemical
STATED_CONDITIONS: buffer, read-out: Kinetic_solubility
Each record's class is read off its solubility kinetic using these ranges: lower level: < 200 µM; middle level: ≥ 200 µM and < 300 µM; upper level: ≥ 300 µM

Worked examples, 4 compounds total:
COMPOUND: CN1CCC(SC(=S)NCCCCNC(=O)Nc2ccncc2)CC1
CLASS_ASSIGNMENT: upper level
--
COMPOUND: C[S+]([O-])CCCCNC(=S)SC1CCNCC1.O=C(O)C(F)(F)F (stereo not drawn)
CLASS_ASSIGNMENT: middle level
--
COMPOUND: CC(=O)N[C@@H](CSC(=S)NCCCC[S+](C)[O-])C(=O)O (stereo partly drawn)
CLASS_ASSIGNMENT: upper level
--
COMPOUND: CN1CCC(SC(=S)NCCCCNC(=O)OCc2ccccc2)CC1
CLASS_ASSIGNMENT: upper level

*Q* // return the class label for CCCCNCCSC(=S)NCCCC[S+](C)[O-] (stereo not drawn)
*A* upper level

*Q* // return the class label for `Cn1cc(CCN=C=S)c2ccccc21`
*A* lower level

*Q* // return the class label for `CC(C)(C)OC(=O)N1CCC(SC(=S)NCCCCNC(=O)NC2CCCC2)CC1`
*A* lower level

*Q* // return the class label for COC(=O)C(C[S+]([O-])CCCCN=C=S)NC(C)=O (stereo not drawn)
*A* middle level

*Q* // return the class label for `O=C(CCCCN=C=S)NCc1ccccc1`
*A* upper level

*Q* // return the class label for `O=S(=O)(CC1(N2CCC(CN=C=S)CC2)COC1)c1ccccc1`
*A* upper level

*Q* // return the class label for `Cl.O=C(NCCCCNC(=S)SC1CCNCC1)NC1CCCC1`
*A* upper level

*Q* // return the class label for O=S(=O)(CC1(N2CCC(CN=C=S)C2)COC1)c1ccccc1 (stereo not drawn)
*A* middle level

----------
Below: a set of entries, each annotated with reported solubility kinetic.
TEST_DETAILS: Kinetic solubility of the compound at pH 7.4 by CLND method
Assay type: physicochemical
STATED_CONDITIONS: buffer, read-out: Kinetic_solubility
Express your answer in µM, writing the number without its unit.

The following compounds have reported results that may help.
COMPOUND: CC(C)(C)OC(=O)N1CCC(SC(=S)NCCCCNC(=O)Nc2cccnc2)CC1
U: µM
solubility kinetic: 114
--
COMPOUND: O=C(NCCCCN=C=S)NCc1ccccc1
U: µM
solubility kinetic: 247
--
COMPOUND: O=C(NCCCCN=C=S)NC1CCCC1
U: µM
solubility kinetic: 419

*Q* Data request, read-out solubility kinetic, for `O=C(NCCCCN=C=S)OCc1ccccc1Cl`
*A* 73

*Q* Data request, read-out solubility kinetic, for `CC(C)(C)OC(=O)N1CCC(SC(=S)NCCCCNC(=O)OCc2ccccn2)CC1`
*A* 80

*Q* Data request, read-out solubility kinetic, for `O=S(=O)(CCCCN=C=S)CCN1CCOCC1`
*A* 273

*Q* Data request, read-out solubility kinetic, for `O=S(=O)(/C=C(\CO)CN1CCC(CN=C=S)CC1)c1ccccc1`
*A* 187

*Q* Data request, read-out solubility kinetic, for `O=C(NCCCCN=C=S)OCc1ccncc1`
*A* 354

*Q* Data request, read-out solubility kinetic, for `O=C(CCc1ccccc1)NCCCCN=C=S`
*A* 337

*Q* Data request, read-out solubility kinetic, for O=C(O)C(F)(F)F.[O-][S+](CCCCN=C=S)CCN1CCOCC1 (configuration not stated)
*A* 81

*Q* Data request, read-out solubility kinetic, for `O=C(NCCCCN=C=S)Nc1ccc2c(c1)OCCO2`
*A* 131

----------
TEST_DETAILS: Apparent permeability across basolateral to apical side in MDCK-MDR1
Format: ADME, cell-based, Canis lupus familiaris
STATED_CONDITIONS: dog
MEASURED_PARAMETER: Papp B→A (×10⁻⁶ cm/s)
Express your answer in ×10⁻⁶ cm/s, writing the number without its unit.

*Q* Data request, read-out Papp B→A, for `CN(C)c1c(N(C)CCCN=C=S)c(=O)c1=O`
*A* 7.67

----------
TEST_DETAILS: Binding affinity to FLAG/His-tagged Keap1 (unknown origin)/biotinylated full-length FLAG/His/Tev/Avi-tagged Cul3 (unknown origin) expressed in baculovirus infected Sf9 insect cells measured after 1 hr by TR-FRET assay
Parameters: species or system Homo sapiens
MEASURED_PARAMETER: pIC50
Output: the number by itself.

COMPOUND_SMILES: Cl.O=C(NCCCCNC(=S)SC1CCNCC1)NC1CCCC1
pIC50: 4.6

COMPOUND_SMILES: CC(C)(C)OC(=O)N1CCC(SC(=S)NCCCCNC(=O)Nc2cccnc2)CC1
pIC50: 4.3

COMPOUND_SMILES: CN1CCC(SC(=S)NCCCCNC(=O)Nc2cccnc2)CC1
pIC50: 4.7

COMPOUND_SMILES: CN1CCC(SC(=S)NCCCCNC(=O)OCc2ccccn2)CC1
pIC50: 4.6

Moving on to the next compound.
*Q* Data request, read-out pIC50, for `O=C(NCCCCN=C=S)Nc1ccncc1`
*A* 4.7

----------
TEST_DETAILS: Binding affinity to FLAG/His-tagged Keap1 (unknown origin)/biotinylated full-length FLAG/His/Tev/Avi-tagged Cul3 (unknown origin) expressed in baculovirus infected Sf9 insect cells measured after 1 hr by TR-FRET assay
Set-up: species or system Homo sapiens
Below: a set of entries, each annotated with reported pIC50.
Output: the number by itself.

The following molecules have reported results that may help.
COMPOUND_SMILES: O=C(NCCCCN=C=S)c1ccncc1
MEASURED_PARAMETER: pIC50
DATA_VALUE: 4.4
--
COMPOUND_SMILES: CC(C)(C)OC(=O)N1CCC(SC(=S)NCCCCNC(=O)OCc2ccccc2Cl)CC1
MEASURED_PARAMETER: pIC50
DATA_VALUE: 4.8
--
COMPOUND_SMILES: CN1CCC(SC(=S)NCCCCNC(=O)Oc2ccccc2)CC1
MEASURED_PARAMETER: pIC50
DATA_VALUE: 4.8
--
COMPOUND_SMILES: O=C(NCCCCN=C=S)NCc1ccccc1
MEASURED_PARAMETER: pIC50
DATA_VALUE: 4.7
--
COMPOUND_SMILES: CN(C)C(=O)CCCCN=C=S
MEASURED_PARAMETER: pIC50
DATA_VALUE: 4.2
--
COMPOUND_SMILES: O=C(NCCCCN=C=S)Nc1ccc2c(c1)OCO2
MEASURED_PARAMETER: pIC50
DATA_VALUE: 5

*Q* Data request, read-out pIC50, for `CN1CCC(SC(=S)NCCCCNC(=O)OCc2ccccc2)CC1`
*A* 5.2

*Q* Data request, read-out pIC50, for `O=S(=O)(CC1(N2CCC(CN=C=S)CC2)COC1)c1ccccc1`
*A* 4.7

*Q* Data request, read-out pIC50, for `CN1CCC(SC(=S)NCCCCS(=O)(=O)c2ccncc2)CC1`
*A* 4.5

*Q* Data request, read-out pIC50, for `O=S(=O)(CC1(c2ccc(N=C=S)cc2)COC1)c1ccccc1`
*A* 4.3

*Q* Data request, read-out pIC50, for `CN1CCC(SC(=S)NCCCCNC(=O)Nc2ccc3c(c2)OCO3)CC1`
*A* 5.1

*Q* Data request, read-out pIC50, for `O=C(NCCCCN=C=S)Nc1ccc2c(c1)OCCO2`
*A* 4.9

*Q* Data request, read-out pIC50, for `CC(C)(C)OC(=O)N1CCC(SC(=S)NCCCCNC(=O)NCc2ccccc2)CC1`
*A* 4.7

----------
Below: a set of entries, each annotated with reported chromatographic logD.
TEST_DETAILS: Lipophilicity, log D of the compound at pH 7.4 by chromatographic method
Type: physicochemical
STATED_CONDITIONS: buffer
Output: the number by itself.

The following molecules have reported results that may help.
MOLECULE: O=C(NCCCCN=C=S)Nc1ccncc1
DATA_VALUE: 2.6
//
MOLECULE: CN(C)CCS(=O)(=O)CCCCN=C=S
DATA_VALUE: 2.84
//
MOLECULE: Cc1ccccc1[S+]([O-])CCCCN=C=S (configuration not stated)
DATA_VALUE: 4.69
//
MOLECULE: CC(C)(C)OC(=O)N1CCC(SC(=S)NCCCCNC(=O)NCc2ccccc2)CC1
DATA_VALUE: 6.05
//
MOLECULE: S=C=NCCN1CCSCC1
DATA_VALUE: 4.93

*Q* Data request, read-out chromatographic logD, for C[S+]([O-])CCCCNC(=S)SC1CCNCC1.O=C(O)C(F)(F)F (configuration not stated)
*A* 0.22

*Q* Data request, read-out chromatographic logD, for CC(=O)N(C)CC[S+]([O-])CCCCN=C=S (configuration not stated)
*A* 1.51

*Q* Data request, read-out chromatographic logD, for `CC(C)(C)OC(=O)N1CCC(SC(=S)NCCCCNC(=O)Nc2ccc3c(c2)OCO3)CC1`
*A* 6.04

*Q* Data request, read-out chromatographic logD, for `O=S(=O)(CC1(c2ccc(N=C=S)cc2)COC1)c1ccccc1`
*A* 4.21

*Q* Data request, read-out chromatographic logD, for `CN1CCC(SC(=S)NCCCCNC(=O)OCc2ccccc2Cl)CC1`
*A* 4.06

*Q* Data request, read-out chromatographic logD, for CN1CCC(SC(=S)NCCCC[S+](C)[O-])CC1 (configuration not stated)
*A* 0.81
